We begin with a simple list: items and their reported Tumor volume (mm^3) (D0).
Test system: human prostate cancer PC-3
Assay: Inhibitory activity of cabazitaxel derivatives on subcutaneously xenografted tumor PC-3 in nude mice
Settings: baseline at grouping (D0); 13 mg/kg, D0 IV; PC-3 xenograft in nude mice
observable: Tumor volume (mm^3) (D0)

# compound, observable, obs value
rows = [
    ("CCN(C)CC[C@@H](F)C(=O)O[C@@H](C(=O)O[C@H]1C[C@@]2(O)[C@@H](OC(=O)c3ccccc3)[C@@H]3[C@]4(OC(C)=O)CO[C@@H]4C[C@H](OC)[C@@]3(C)C(=O)[C@H](OC)C(=C1C)C2(C)C)[C@@H](NC(=O)OC(C)(C)C)c1ccccc1.O=C(O)/C=C\\C(=O)O", "Tumor volume (mm^3) (D0)", 112.4),
    ("CO[C@H]1C(=O)[C@]2(C)[C@@H](OC)C[C@H]3OC[C@@]3(OC(C)=O)[C@H]2[C@H](OC(=O)c2ccccc2)[C@]2(O)C[C@H](OC(=O)[C@H](OC(=O)[C@H](F)CCN(C)C)[C@@H](NC(=O)OC(C)(C)C)c3ccccc3)C(C)=C1C2(C)C.CS(=O)(=O)O", "Tumor volume (mm^3) (D0)", 111.5),
    ("CCN(CC)CC[C@@H](F)C(=O)O[C@@H](C(=O)O[C@H]1C[C@@]2(O)[C@@H](OC(=O)c3ccccc3)[C@@H]3[C@]4(OC(C)=O)CO[C@@H]4C[C@H](OC)[C@@]3(C)C(=O)[C@H](OC)C(=C1C)C2(C)C)[C@@H](NC(=O)OC(C)(C)C)c1ccccc1.CS(=O)(=O)O", "Tumor volume (mm^3) (D0)", 112.0),
    ("CO[C@H]1C(=O)[C@]2(C)[C@@H](OC)C[C@H]3OC[C@@]3(OC(C)=O)[C@H]2[C@H](OC(=O)c2ccccc2)[C@]2(O)C[C@H](OC(=O)[C@H](OC(=O)[C@@H](F)CCN(C)C)[C@@H](NC(=O)OC(C)(C)C)c3ccccc3)C(C)=C1C2(C)C.CS(=O)(=O)O", "Tumor volume (mm^3) (D0)", 111.9),
    ("CO[C@H]1C(=O)[C@]2(C)[C@@H](OC)C[C@H]3OC[C@@]3(OC(C)=O)[C@H]2[C@H](OC(=O)c2ccccc2)[C@]2(O)C[C@H](OC(=O)[C@H](OC(=O)[C@@H](CCN(C)C)C(F)(F)F)[C@@H](NC(=O)OC(C)(C)C)c3ccccc3)C(C)=C1C2(C)C.CS(=O)(=O)O", "Tumor volume (mm^3) (D0)", 110.2),
    ("CO[C@H]1C(=O)[C@]2(C)[C@@H](OC)C[C@H]3OC[C@@]3(OC(C)=O)[C@H]2[C@H](OC(=O)c2ccccc2)[C@]2(O)C[C@H](OC(=O)[C@H](OC(=O)C(F)CCN(C)C)[C@@H](NC(=O)OC(C)(C)C)c3ccccc3)C(C)=C1C2(C)C.CS(=O)(=O)O (stereo partly shown)", "Tumor volume (mm^3) (D0)", 111.4),
    ("CO[C@H]1C(=O)[C@]2(C)[C@@H](OC)C[C@H]3OC[C@@]3(OC(C)=O)[C@H]2[C@H](OC(=O)c2ccccc2)[C@]2(O)C[C@H](OC(=O)[C@H](OC(=O)[C@H](F)CCN(C)C(C)C)[C@@H](NC(=O)OC(C)(C)C)c3ccccc3)C(C)=C1C2(C)C.Cl", "Tumor volume (mm^3) (D0)", 111.7),
]

The origin of these recorded values is patent US9650390B2.
